Molecular target: human ether-à-go-go-related gene (hERG) potassium channel (human, UniProt Q12809);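 note: peak tail current of the secondary pulse compared with the same well before compound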
Sequence (Q12809 whole entry, looked up): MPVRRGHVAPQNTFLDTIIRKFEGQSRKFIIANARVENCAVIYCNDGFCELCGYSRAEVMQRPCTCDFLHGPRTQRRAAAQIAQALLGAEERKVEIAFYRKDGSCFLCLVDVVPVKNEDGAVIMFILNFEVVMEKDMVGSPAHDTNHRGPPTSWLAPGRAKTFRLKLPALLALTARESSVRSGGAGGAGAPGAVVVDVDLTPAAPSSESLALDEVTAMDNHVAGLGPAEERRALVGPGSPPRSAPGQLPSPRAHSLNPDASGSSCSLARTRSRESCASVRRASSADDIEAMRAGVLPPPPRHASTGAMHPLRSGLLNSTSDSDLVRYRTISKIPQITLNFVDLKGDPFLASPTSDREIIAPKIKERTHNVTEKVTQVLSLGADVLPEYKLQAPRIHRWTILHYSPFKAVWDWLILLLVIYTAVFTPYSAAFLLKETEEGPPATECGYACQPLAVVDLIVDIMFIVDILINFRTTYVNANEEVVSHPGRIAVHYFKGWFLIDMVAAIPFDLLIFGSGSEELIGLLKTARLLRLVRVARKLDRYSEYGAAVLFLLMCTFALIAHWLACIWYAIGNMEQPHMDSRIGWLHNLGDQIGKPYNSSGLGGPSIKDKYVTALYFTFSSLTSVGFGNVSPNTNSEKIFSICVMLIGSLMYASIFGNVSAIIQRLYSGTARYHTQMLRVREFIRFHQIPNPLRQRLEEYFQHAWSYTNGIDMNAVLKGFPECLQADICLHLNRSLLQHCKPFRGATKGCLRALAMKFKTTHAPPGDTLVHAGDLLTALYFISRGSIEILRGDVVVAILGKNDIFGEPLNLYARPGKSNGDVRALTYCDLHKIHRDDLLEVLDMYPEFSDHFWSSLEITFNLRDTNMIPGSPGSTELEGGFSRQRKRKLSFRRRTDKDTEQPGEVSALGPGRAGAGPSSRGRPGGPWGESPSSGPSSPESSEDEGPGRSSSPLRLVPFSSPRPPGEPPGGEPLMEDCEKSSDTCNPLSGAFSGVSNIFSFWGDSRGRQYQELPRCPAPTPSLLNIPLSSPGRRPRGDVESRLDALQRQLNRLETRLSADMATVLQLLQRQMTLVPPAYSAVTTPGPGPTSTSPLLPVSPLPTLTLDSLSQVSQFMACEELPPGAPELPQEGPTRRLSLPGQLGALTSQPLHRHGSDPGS
Assay: primary screen, population patch clamp on CHO cells stably expressing hERG; higher = less effect of the substance
Among all 310,000 compounds or so, about 14,000 (4.5%) showed an effect of 50% or more. The effect is printed as a negative number. This is one part of a sample in which strong results are shown more often than they occur.
Would you mind labelling by hERG current change (%, negative = inhibition) at 10uM? At or over -20% is met, under is not met.

smi: Cc1ccccc1NCC(=O)N/N=C/c1c(C)c(C(=O)c2ccc(Cl)cc2)n2ccccc12
class label: met
--
smi: Cc1ccc(NC(=O)Cn2c(=O)cnc3ccccc32)cc1S(=O)(=O)N1CCOCC1
class label: not met
--
smi: Cc1ccc(NC(=O)Cn2c(=O)cnc3ccccc32)cc1S(=O)(=O)N1CCCCC1
class label: not met
--
smi: Nc1c(C(=O)NCc2ccco2)nnn1-c1ccccc1
class label: met

Item O=C(Cn1c(=O)cnc2ccccc21)Nc1cccc(S(=O)(=O)N2CCOCC2)c1 with hERG current change (%, negative = inhibition) at 10uM of -20% or above?
not met

----------
Target: human ether-à-go-go-related gene (hERG) potassium channel (human);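 note: peak tail current of the secondary pulse compared with the same well before compound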
Assay: primary screen, population patch clamp on CHO cells stably expressing hERG; higher = less effect of the substance
Screen size: about 310,000 compounds; about 14,000 (4.5%) showed an effect of 50% or more. Effects have a minus sign here. The sample as a whole holds a higher share of strong results than the screen did.
reported property: hERG current change (%, negative = inhibition) at 10uM (%)
One number for each entry, in %.

Look up hERG current change (%, negative = inhibition) at 10uM for the entries below, preserving their order.
1. COc1ccc(-c2nnc(SCCC(=O)O)n2C)cc1OC
2. Cc1ccc(-c2nc(N)n(S(C)(=O)=O)n2)cc1
3. COc1ccc(C(=O)NC2CC2)cc1OC1CCN(Cc2ccccc2O)CC1
4. COc1ccc(C(=O)N(C)C2CCCN(Cc3ccccc3F)C2)cc1OC (centres unmarked)
5. COc1ccc(C(=O)NC2CCc3ccccc32)cc1OC1CCN(C(C)=O)CC1 (centres unmarked)

1. -6.37
2. 7.05
3. -102
4. 11.1
5. -0.012

----------
Target: human ether-à-go-go-related gene (hERG) potassium channel (human);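 note: peak tail current of the secondary pulse compared with the same well before compound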
Experiment: primary screen, population patch clamp on CHO cells stably expressing hERG; higher = less effect of the substance
The campaign covered roughly 310,000 compounds. About 14,000 (4.5%) showed an effect of 50% or more. Effects have a minus sign here. The sample holds strong results, similar compounds and a random draw of the others, so the mix is not that of the screen.
reported property: hERG current change (%, negative = inhibition) at 10uM

compound: CC(/C=N/NC(=O)c1ccc(Br)cc1)=C\c1ccccc1
obs value: -3.38%

Look up hERG current change (%, negative = inhibition) at 10uM for the entries below, preserving their order.
1. CC(=O)c1cccc(OCc2cc(C(=O)N(C)C(C)c3ccccn3)no2)c1 (stereo not drawn)
2. O=C(NNc1ccccc1[N+](=O)[O-])Nc1cccc(Cl)c1

-4.32%
19.3%

Look up hERG current change (%, negative = inhibition) at 10uM for the entries below, preserving their order.
1. COc1ccc(C(=O)N/N=C\C(C)=C\c2ccccc2)cc1OC
2. CN1CCCC(OC(=O)COc2ccc(Br)cc2)C1.Cl (stereo not drawn)
3. O=C(CNC(=O)c1ccccc1)N/N=C/C=C/c1ccccc1
4. CC(/C=N/NC(=O)c1ccncc1)=C\c1ccccc1
5. Cc1cccc2cc(CN(CCc3ccccc3)C(=O)N3CCOCC3)c3nnnn3c12
6. CCOc1ccc2[nH]c3c(N4CCC5(CC4)OCCO5)ncnc3c2c1
7. Cc1[nH][nH]c(=O)c1C=Nc1ccc(C(F)(F)F)cc1
8. COc1ccc(C(=O)NCC(=O)N/N=C/C(C)=C/c2ccccc2)cc1OC

1: -61.4%; 2: -12.8%; 3: -1.96%; 4: 9.78%; 5: 12.5%; 6: 5.84%; 7: 17.4%; 8: -1.63%
